Biological target: Tyrosyl-tRNA synthetase, putative (Trypanosoma cruzi (strain CL Brener))
Sequence (whole entry): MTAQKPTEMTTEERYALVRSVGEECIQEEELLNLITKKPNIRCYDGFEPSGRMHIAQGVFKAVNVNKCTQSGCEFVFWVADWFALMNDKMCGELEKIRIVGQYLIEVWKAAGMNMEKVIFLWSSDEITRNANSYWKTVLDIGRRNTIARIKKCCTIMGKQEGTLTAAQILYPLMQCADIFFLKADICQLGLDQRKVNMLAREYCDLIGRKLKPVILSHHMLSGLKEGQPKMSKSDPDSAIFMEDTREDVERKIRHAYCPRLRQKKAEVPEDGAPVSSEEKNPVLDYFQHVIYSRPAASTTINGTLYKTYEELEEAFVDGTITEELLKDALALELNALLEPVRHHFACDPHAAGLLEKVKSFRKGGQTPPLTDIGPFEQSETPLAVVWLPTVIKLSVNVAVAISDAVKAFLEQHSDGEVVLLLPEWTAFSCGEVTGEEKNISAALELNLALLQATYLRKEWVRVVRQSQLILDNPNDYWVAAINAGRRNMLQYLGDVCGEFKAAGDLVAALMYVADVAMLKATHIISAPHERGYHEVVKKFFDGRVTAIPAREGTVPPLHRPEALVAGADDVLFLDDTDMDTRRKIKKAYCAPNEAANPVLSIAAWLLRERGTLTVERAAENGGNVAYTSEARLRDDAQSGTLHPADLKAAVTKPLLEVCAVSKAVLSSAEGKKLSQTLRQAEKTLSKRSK
Test: Trypanosoma cruzi tyrosyl tRNA synthetase (TcYRS) _High Tyrosine SOP
Assay type: functional
Set-up: scale not given: in the data most compounds retested in dose-response had high values
Details: 30 µM
Each entry below carries its recorded Percent Effect.

compound	Percent Effect
CC(C)C(C(=O)N1CCCN(Cc2cnn(C)c2)CC1)n1cncn1 (stereo unspecified)	1.07%
Cc1ccc(S(=O)(=O)N2CCOc3ccccc32)cc1C(N)=O	0.478%
O=C(NCCCN1CCOCC1)c1cc(-c2ccc3c(c2)CCO3)n[nH]1	1.06%
Cc1cc(C)n(CC2CN(CC(=O)Nc3nncs3)CCO2)n1 (stereo unspecified)	6.8%
Cc1nnc(CN2CCN(CCOc3ccccc3C#N)CC2)n1C	3.45%
Cc1nc(NC2CCCC2)cc(C2CCN2C(=O)c2ccccc2)n1 (stereo unspecified)	1.07%
CC(Cn1cccn1)NC(=O)NCc1cccs1 (stereo unspecified)	3.68%
O=C(CC1CC1)N1CCn2cc(Cn3cncn3)nc2C1	3.17%
Cc1cc(C2CCCN2C(=O)c2cc3c(s2)CCC3)on1 (stereo unspecified)	0.49%
CCCNC(=O)NCc1cccnc1OC	2.63%
O=C(NCCOc1ccc2c(c1)OCO2)N1CCC1	4.9%
O=C(CN1CCNCC1)N1CC[C@@H](c2ccc3ccccc3c2)[C@H](O)C1	7.1%
Cc1cnn(C2CCCN(C(=O)c3cc(C4CC4)on3)C2)c1 (stereo unspecified)	4.31%
CN(Cc1ccon1)C(=O)C1CC(=O)N(Cc2ccncc2)C1 (stereo unspecified)	5.38%
COCCN1CCC(CNC(=O)c2cc(C)cc(C)c2)C1 (stereo unspecified)	6.4%
CCN(Cc1ccc2c(c1)OCCO2)S(=O)(=O)N(C)C(C)C	0%
CCC1c2ccsc2CCN1C(=O)NCCNc1ncccn1 (stereo unspecified)	6.22%
CCOC1CCCN(C(=O)NCCc2ccn(-c3ccccc3)n2)C1 (stereo unspecified)	5.71%
CN1[C@H](Cn2cccn2)C[C@@H]2CN(C(=O)Cc3cccs3)CC[C@@H]21	6.76%
Cn1cc(CNCC2Cn3nnc(-c4ccccc4)c3CO2)cn1 (stereo unspecified)	2.63%
Cc1cc(C(=O)NCCN2CCCC(C)C2)nn1C (stereo unspecified)	3.88%
